Kindly state pIC50 for each of the entries shown.
target: UniProt P25779; assay: Inhibitory activity against Trypanosoma cruzi cathepsin L-like protease (cruzain) was determined using purified recombinant protein
Sequence (P25779 whole entry): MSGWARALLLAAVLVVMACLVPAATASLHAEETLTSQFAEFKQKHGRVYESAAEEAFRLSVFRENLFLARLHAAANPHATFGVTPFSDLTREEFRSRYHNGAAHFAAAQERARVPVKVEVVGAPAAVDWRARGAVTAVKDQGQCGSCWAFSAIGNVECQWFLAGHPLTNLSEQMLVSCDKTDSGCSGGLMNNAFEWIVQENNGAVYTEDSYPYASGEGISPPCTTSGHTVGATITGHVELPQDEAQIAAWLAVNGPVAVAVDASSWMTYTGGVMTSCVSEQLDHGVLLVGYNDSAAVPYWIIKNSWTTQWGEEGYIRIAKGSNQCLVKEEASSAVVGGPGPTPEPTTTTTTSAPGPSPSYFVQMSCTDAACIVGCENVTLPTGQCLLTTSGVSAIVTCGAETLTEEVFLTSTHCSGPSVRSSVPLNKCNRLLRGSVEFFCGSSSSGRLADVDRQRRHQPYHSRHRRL
The value called pIC50 is obtained by taking minus log10 of the concentration in mol/L.

Ask: What measured pIC50 goes with CC1CN(C(=N)S)N=C1c1cccc(C(F)(F)F)c1 (stereo unspecified) ?
Result: 7.40

Ask: Ok, now CC1CN(C(=N)S)N=C1c1ccc(Cl)c(Cl)c1 (stereo unspecified)
Result: 7.15

Ask: Another: "CC/C(=N\N=C(\N)S)c1cc(C(F)(F)F)cc(C(F)(F)F)c1"
Result: 7.70

Ask: Same question for CC1CN(C(=N)S)N=C1c1cccc(Cl)c1 (stereo unspecified) please.
Result: 6.64

Ask: Quick one: "C/C(=N\N=C(\N)S)c1ccc(Cl)c(Cl)c1"
Result: 7.30

Ask: Also "C/C(=N\N=C(\N)S)c1cccc(C(F)(F)F)c1" ?
Result: 6.77

Ask: Another: "S=C(Nc1cccc(Cl)c1)N1CCC(c2cccc(Br)c2)=N1"
Result: 6.00
